Quick list: inhibition at 50 µM per entry.
target: Xanthine dehydrogenase/oxidase (Bos taurus, UniProt P80457); assay: Inhibition of bovine milk xanthine oxidase using xanthine as substrate assessed as decrease in uric acid formation at 50 uM preincubated for 5 mins; settings: cattle
Sequence (P80457 whole entry): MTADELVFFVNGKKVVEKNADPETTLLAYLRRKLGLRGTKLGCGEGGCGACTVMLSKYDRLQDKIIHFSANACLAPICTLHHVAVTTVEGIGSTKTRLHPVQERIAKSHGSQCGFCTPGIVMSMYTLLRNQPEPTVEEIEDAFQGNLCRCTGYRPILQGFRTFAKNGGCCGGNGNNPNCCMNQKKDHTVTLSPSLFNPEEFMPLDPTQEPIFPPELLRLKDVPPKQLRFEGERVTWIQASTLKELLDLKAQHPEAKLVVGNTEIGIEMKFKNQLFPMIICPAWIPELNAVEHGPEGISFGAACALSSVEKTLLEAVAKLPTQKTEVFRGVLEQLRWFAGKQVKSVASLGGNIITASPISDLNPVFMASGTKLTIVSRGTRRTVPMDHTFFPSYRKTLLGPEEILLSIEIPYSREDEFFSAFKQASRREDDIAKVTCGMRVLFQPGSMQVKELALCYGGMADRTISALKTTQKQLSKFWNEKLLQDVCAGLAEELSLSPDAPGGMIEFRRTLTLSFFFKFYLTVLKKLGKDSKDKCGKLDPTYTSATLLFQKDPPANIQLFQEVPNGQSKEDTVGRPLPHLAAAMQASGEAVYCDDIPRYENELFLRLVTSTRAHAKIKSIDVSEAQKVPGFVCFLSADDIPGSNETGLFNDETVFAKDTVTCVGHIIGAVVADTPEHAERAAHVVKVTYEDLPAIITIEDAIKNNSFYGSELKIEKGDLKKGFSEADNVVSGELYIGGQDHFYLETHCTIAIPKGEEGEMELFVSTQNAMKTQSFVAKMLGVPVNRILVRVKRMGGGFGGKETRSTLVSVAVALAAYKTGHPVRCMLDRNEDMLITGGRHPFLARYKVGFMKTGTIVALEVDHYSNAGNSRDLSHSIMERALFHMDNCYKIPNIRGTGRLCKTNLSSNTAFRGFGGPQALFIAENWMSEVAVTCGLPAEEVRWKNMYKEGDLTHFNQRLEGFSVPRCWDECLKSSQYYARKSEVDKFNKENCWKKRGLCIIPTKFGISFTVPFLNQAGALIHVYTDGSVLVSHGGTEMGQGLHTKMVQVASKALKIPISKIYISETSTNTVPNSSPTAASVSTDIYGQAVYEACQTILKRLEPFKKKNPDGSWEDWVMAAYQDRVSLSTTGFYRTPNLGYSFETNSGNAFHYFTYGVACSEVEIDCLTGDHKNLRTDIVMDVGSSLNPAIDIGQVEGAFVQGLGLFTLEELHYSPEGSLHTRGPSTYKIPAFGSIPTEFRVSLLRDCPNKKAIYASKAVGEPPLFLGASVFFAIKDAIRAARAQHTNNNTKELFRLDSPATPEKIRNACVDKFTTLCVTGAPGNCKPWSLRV
measurement_type: inhibition at 50 µM (%)

1. CCOC(=O)C1=C(C)Oc2ccc3ccccc3c2C1c1ccc([N+](=O)[O-])cc1 (stereo not given) | 21.4
2. COC(=O)C1=C(C)Oc2ccc3ccccc3c2C1c1ccc(OC)c(O)c1 (stereo not given) | 69.3
3. COC(=O)C1=C(C)Oc2ccc3ccccc3c2C1c1ccc([N+](=O)[O-])cc1 (stereo not given) | 25
4. COC(=O)C1=C(C)Oc2ccc3ccccc3c2C1c1ccccc1OC (stereo not given) | 58.8
5. CCOC(=O)C1=C(C)Oc2ccc3ccccc3c2C1c1ccc(Cl)cc1 (stereo not given) | 20.9
6. COC(=O)C1=C(C)Oc2ccc3ccccc3c2C1c1ccc(O)cc1 (stereo not given) | 72.4
7. CCOC(=O)C1=C(C)Oc2ccc3ccccc3c2C1c1cccc(Oc2ccccc2)c1 (stereo not given) | 50.5
8. CCOC(=O)C1=C(C)Oc2ccc3ccccc3c2C1c1cccs1 (stereo not given) | 89
9. CCCCCC1C(C(=O)OC)=C(C)Oc2ccc3ccccc3c21 (stereo not given) | 58.9
10. COC(=O)C1=C(C)Oc2ccc3ccccc3c2C1c1cccc(Oc2ccccc2)c1 (stereo not given) | 59.6
